What GI50 was measured for each of the following?
System: BT-549
experiment-notes: NCI tumour cell line growth inhibition, 48 h
The source made the active and inactive calls. Cut-off read from the data, not from the text of the source: active = GI50 up to about 1.1 µM and inactive = higher.

Lookup: Give recorded GI50 with BT-549 for the following compound: `CN1CCN(CCCBr)CC1`
Found: > 100 µM (inactive)

Lookup: Item CC(C)(C)[Si](C)(C)OCCc1ccccc1C1CC2(S(=O)(=O)c3ccccc3)ON1CC2S(=O)(=O)c1ccccc1 (configuration not stated) with BT-549 - GI50?
Found: > 100 µM (inactive)

Lookup: What value of GI50 on BT-549 does `O=C1Nc2ccccc2/C1=N/Nc1ncccc1[N+](=O)[O-]` have?
Found: 11.5 µM (inactive)

Lookup: Notebook entry, BT-549 assay: GI50 of `CN(C)C(=O)Oc1ccc(-c2cn3cc(NC(=O)c4ccccc4)ccc3n2)cc1` = ?
Found: 80.4 µM (inactive)

Lookup: Item: `COC(=N)CCCl` Test system: BT-549 Read-out: GI50 Value: ?
Found: > 100 µM (inactive)

Lookup: Provide value of GI50 for this record tested with BT-549: `COc1c(OC)c(O)c2c(=O)c(OC)c(-c3ccc4c(c3)OCO4)oc2c1O`
Found: > 100 µM (inactive)

Lookup: API: value(readout= GI50, system= BT-549, query= C[C@@]1(O)C2C3CC4C5C3C1[C@](O)(C42)[C@H]5Br (some centres not stated) )
Found: > 100 µM (inactive)

* * *

Tested on: HOP-92
experiment-notes: NCI tumour cell line growth inhibition, 48 h
Active and inactive are the calls of the source. No stated cut-off is given here; in the data, active = GI50 up to about 1.1 µM and inactive = higher.
Please go through the items and note down their GI50.

Lookup: Please look up its GI50: CSc1nc2c(nc(N)n2C2OC(CO)C(O)C(O)C2O)c(=O)n1C (stereo unspecified)
Found: > 100 µM (inactive)

Lookup: Entry `COc1ccc(/C=C2\CCS(=O)(=O)c3ccccc3C2=O)cc1OC` : reported GI50 = ?
Found: 19.6 µM (inactive)

Lookup: Given `CNC(=O)CN(C)C(=O)CCC(=O)N(C)C` , state its recorded GI50.
Found: > 100 µM (inactive)

Lookup: Can you look up the measured GI50 of `COCN1C(=O)[C@@H]2C[C@@H](O)CN2C(=O)c2ccccc21` for me?
Found: > 100 µM (inactive)

Lookup: Bench note: what GI50 did COc1cc(C(C)O)c(S(=O)(=O)CC(C)O)nn1 (stereo unspecified) show?
Found: > 100 µM (inactive)

Lookup: Fill blank: measured GI50 of the compound `COc1ccc(CCCN2c3ccccc3Sc3ccccc32)cc1` is ____.
Found: > 100 µM (inactive)

* * *

System: A498
experiment-notes: NCI tumour cell line growth inhibition, 48 h
Active and inactive are the calls of the source. No stated cut-off is given here; in the data, active = GI50 up to about 1.1 µM and inactive = higher.
reported-endpoint: GI50

Lookup: Look at this compound and give its reported GI50. Cc1oc2c(c1C)S(=O)(=O)C(C#N)C(c1ccccc1)N2 (stereo not drawn)
Found: > 100 µM (inactive)

Lookup: Reported GI50, compound `CC(=O)Nc1ccc(Cc2ccc3nc(O)cc(C)c3c2)cc1` : ____
Found: > 100 µM (inactive)

Lookup: Find the recorded GI50 belonging to `C[P+]1(Cc2ccccc2)CCCC1` and report it.
Found: > 100 µM (inactive)

Lookup: # lookup: GI50 of `Clc1ccc2c(c1)[nH]c1c2nc2sccn21`
Found: > 100 µM (inactive)

Lookup: Which GI50 reading was recorded for the compound CSc1nc2c(nc(N)n2C2OC(CO)C(O)C(O)C2O)c(=O)n1C (stereo not drawn) ?
Found: > 100 µM (inactive)

Lookup: What value of GI50 has been recorded for this entry: `O=c1[nH]nc(-c2ccccc2)n1/N=C/c1cccc([N+](=O)[O-])c1`
Found: > 100 µM (inactive)

Lookup: So what does the record say about GI50 for `C[N+]1=c2c3cccc4cccc(c(=O)n2CC1)c43` ?
Found: 15.1 µM (inactive)

Lookup: I am curious: what GI50 value has been reported for `COc1cccc2nc3cc(C)c(C)cc3nc12` ?
Found: > 100 µM (inactive)

Lookup: Find the recorded GI50 belonging to CC1(C)NC2C(=O)c3c([nH]c4ccccc34)[C@]3(C)CCC1CC23 (stereo partly drawn) and report it.
Found: > 100 µM (inactive)

Lookup: Need GI50 of COc1ccc(C2C3COc4ccccc4C3=NN2c2ccccc2)cc1 (stereo not drawn) , thanks.
Found: > 100 µM (inactive)

Lookup: Please give the measured GI50 for this compound: `COc1ccc2c(c1)c(=O)c1c(NCCCN(C)C)ccc3ncn2c31`
Found: 11.2 µM (inactive)

Lookup: Which GI50 reading was recorded for the compound `Nc1nc(-c2ccccc2)cc(-c2cc(Cl)ccc2O)n1` ?
Found: > 100 µM (inactive)

Lookup: Entry `COc1cc(S(=O)(=O)Nc2ccc(-c3csc(N)n3)cc2)ccc1Cl` has what GI50?
Found: 18.2 µM (inactive)

Lookup: Item `NS(=O)(=O)c1ccc(NC(=O)COC(=O)c2cccc3c(=O)c4ccccc4[nH]c23)cc1` has what recorded GI50?
Found: 17.9 µM (inactive)

Lookup: Entry `CCn1c(=O)c2c(=O)[nH][nH]c2c2ccccc21` has what GI50?
Found: > 100 µM (inactive)

Lookup: Can you look up the measured GI50 of O=C1C2=C(c3ccccc31)C(c1cccc(Cl)c1)NC(S)=N2 (stereo not drawn) for me?
Found: > 100 µM (inactive)

Lookup: Param item = `C=C1CC[C@@H](C)[C@](C)(CCc2ccoc2)C/C=C\C=C/1C(=O)O` ; retrieve measured GI50.
Found: 58.6 µM (inactive)

Lookup: Which GI50 reading was recorded for the compound `O=c1ccc(=O)n(-c2ccccc2)[nH]1` ?
Found: > 100 µM (inactive)

Lookup: Which measured GI50 value corresponds to `O=C(O)c1nn(-c2ccccc2-c2nnc(O)nc2O)c(=O)[nH]c1=O` ?
Found: > 100 µM (inactive)

Lookup: For the compound shown here, `N#CC1=C(Nc2ccccc2)SC=C(c2ccccc2)N=C1NCc1ccccc1` , give the reported GI50.
Found: > 100 µM (inactive)

Lookup: GI50 lookup needed for `Cc1ccc([N+](=O)[O-])cc1NC(=O)c1cccc([N+](=O)[O-])c1O` , thanks.
Found: 11.3 µM (inactive)

Lookup: Endpoint output: GI50 of COC1CC(N)(c2ccccc2)C(O)C(C)O1 (stereo not drawn) . Value?
Found: > 100 µM (inactive)

Lookup: Which GI50 is reported for this compound? `CO/C(N)=C(C#N)/N=C/c1cccs1`
Found: 33.2 µM (inactive)

Lookup: Name the recorded GI50 for `O=S(=O)(O)c1cc2ccc1/C=C\c1ccc(cc1S(=O)(=O)O)/N=N\c1ccc(c(S(=O)(=O)O)c1)/C=C\c1ccc(cc1S(=O)(=O)O)/N=N\2` .
Found: > 100 µM (inactive)

Lookup: Could you share which GI50 value was measured for `N/C(=N\c1ccc(Cl)cc1)NS(=O)(=O)c1ccc(-c2ncccc2C(F)(F)F)s1` ?
Found: 16.7 µM (inactive)

Lookup: So what does the record say about GI50 for CC(C)CN(CC(C)C)C(=O)C1CCCC[C@@H]1C(=O)O (stereo partly drawn) ?
Found: > 100 µM (inactive)

Lookup: Could you tell me which GI50 is on file for `O=C(NC(=O)c1cc(-c2ccccc2)n[nH]1)c1ccccc1` ?
Found: > 100 µM (inactive)

Lookup: For the compound `C1CCN(c2nsc(N3CCCCC3)n2)CC1` , what GI50 is on record?
Found: > 100 µM (inactive)

Lookup: What value of measured GI50 is listed for `C1CSCCSCCSCCSCCS1` ?
Found: > 100 µM (inactive)

Lookup: # get_value(readout='GI50', item= `c1ccc2c(NCCCCCCCCNc3c4ccccc4nc4ccccc34)c3ccccc3nc2c1` )
Found: 1.26 µM (inactive)

Lookup: Item `O=C(c1ccccn1)C1(N2CCCCC2)CCCCC1` has what recorded GI50?
Found: > 100 µM (inactive)

Lookup: # input compound: `CC(/C=N/N=C(N)N)=N\N=C(N)N` ; wanted: its GI50
Found: 253 µM (inactive)

Lookup: Any idea what GI50 was measured for `CN(C)CCNC(=O)c1cccc2ccc(-c3cccnc3)nc12` ?
Found: 1.9 µM (inactive)

Lookup: What value of GI50 has been reported for the following compound? `N#Cc1c(Cl)c2cc([N+](=O)[O-])ccc2n2c1nc1ccccc12`
Found: 25.6 µM (inactive)

Lookup: Which measured GI50 value corresponds to `CN1CCCN(C)C1c1cc([N+](=O)[O-])ccc1O` ?
Found: > 100 µM (inactive)

Lookup: // lookup GI50 for `O=c1[nH]nc(Cc2ccccc2)n1/N=C/c1c(O)ccc2ccccc12`
Found: 18.5 µM (inactive)

Lookup: Report GI50 for CC(NC1=NCCO1)c1cccc([N+](=O)[O-])c1 (stereo not drawn) please.
Found: > 100 µM (inactive)

Lookup: Sample `Cc1c(C)c(C)c(Cn2[nH]c(=O)n(C)c2=O)c(C)c1C` — what was its GI50?
Found: > 100 µM (inactive)

Lookup: Tell me the measured GI50 of `COc1ccc(/C=C2\CCS(=O)(=O)c3ccccc3C2=O)cc1OC` , please.
Found: 33.4 µM (inactive)

Lookup: What value of measured GI50 is listed for `CN(C)C(=O)Nc1c([N+](=O)[O-])cc(C(F)(F)F)cc1[N+](=O)[O-]` ?
Found: > 100 µM (inactive)

Lookup: # lookup: GI50 of `C[C@]12CC[C@@H]3c4ccc(O)cc4CC[C@H]3[C@@H]1C/C(=C\c1ccncc1)[C@@H]2O`
Found: 5.78 µM (inactive)

Lookup: Looking for the measured GI50 of `Cc1ccc(S(=O)(=O)n2cc(/C=C/C#N)c(-c3cn(S(=O)(=O)c4ccc(C)cc4)cc3-c3cn(S(=O)(=O)c4ccc(C)cc4)cc3/C=C/C#N)c2)cc1` , can you help?
Found: > 100 µM (inactive)

Lookup: Entry O=C1OCC2(CO1)CC1C=CC2C1 (stereo not drawn) has what GI50?
Found: > 100 µM (inactive)
